Reference for the values: patent US12630507B2

PROCEDURE TEXT: Solubility test in water by HPLC
Assay type: physicochemical
EXPERIMENTAL PARAMETERS: ultrapure water, 37 °C, shaking for 24 h, filtrate by HPLC
PROPERTY MEASURED: Concentration of compound represented by formula (I) in saturated aqueous solution (µg/mL)

# example entries with known answers
1) NC(=O)[C@@H]1C[C@H](F)CN1Cc1ccc(OCc2cccc(F)c2)cc1 [Example 2] | 21161.79
2) NC(=O)[C@@H]1C[C@H](F)CN1Cc1ccc(OCc2cccc(F)c2)cc1 [Example 9] | 575.35
3) NC(=O)[C@@H]1C[C@H](F)CN1Cc1ccc(OCc2cccc(F)c2)cc1 [Compound represented by formula (I)] | 11.40

1. NC(=O)[C@@H]1C[C@H](F)CN1Cc1ccc(OCc2cccc(F)c2)cc1 [Example 10]
2. NC(=O)[C@@H]1C[C@H](F)CN1Cc1ccc(OCc2cccc(F)c2)cc1 [Example 8]
INPUT: For 1 and 2 , which recorded Concentration of compound represented by formula (I) in saturated aqueous solution is lower? Pick one and reply with its label.
OUTPUT: 1
(1: 1571.18 µg/mL, 2: 4719.01 µg/mL)
